Tested on: PRC2-mediated histone H3 methylation
method-notes: Tri-Methyl Histone H3 (Lys 27) Sandwich ELISA in Pfeiffer cells: inhibition of PRC2-mediated histone H3 methylation
Format: cell-based, human
condition-notes: Homo sapiens; Inhibition of EZH2-mediated histone H3 trimethylation; Pfeiffer cells (EZH2 A677G), 96 hours incubation
pIC50: −log10 of the molar value.
Task for the reader: assign each of the following compounds its reported pIC50.

// recorded pIC50 for COCCOc1ccc(-c2cnc(NCc3c(F)ccc4c3CCO4)n3cc(C#N)nc23)cn1 [Example 158] : 6.30 to 7.00

// recorded pIC50 for Cc1cc(C2CCCN2)ccc1-c1cnc(NCc2c(F)ccc3c2CCO3)n2cc(C#N)nc12 (single isomer, unassigned) [Example 213] : 6.30 to 7.00

// recorded pIC50 for Cn1nc(C(F)(F)F)cc1-c1cnc(NCc2c(F)ccc3c2CCO3)n2cc(C#N)nc12 [Example 111] : ≥ 7.00

// recorded pIC50 for CN(C)C1(c2ccc(-c3cnc(NCc4c(F)ccc5c4CCO5)n4cc(C#N)nc34)cc2)CC1 [Example 171] : 6.30 to 7.00

// recorded pIC50 for N#Cc1cn2c(NCc3c(F)ccc4c3CCO4)ncc(-c3cnn(CCO)c3)c2n1 [Example 182] : 6.30 to 7.00

// recorded pIC50 for CN1CCN(C(=O)c2cc(-c3cnc(NCc4c(F)ccc5c4CCO5)n4cc(C#N)nc34)n(C)n2)CC1 [Example 229] : ≥ 7.00

// recorded pIC50 for N#Cc1cn2c(NCc3c(F)ccc4c3CCO4)ncc(-c3ccc(-c4nnn[nH]4)cc3)c2n1 [Example 190] : < 6.30

// recorded pIC50 for N#Cc1cn2c(NCc3c(F)ccc4c3CCO4)ncc(-c3ccc(CN4CC(F)(F)C4)cc3)c2n1 [Example 51] : ≥ 7.00

Cited source: patent EP4043466B1
